Each item that follows carries a reported IC50.
- TARGET_ENTITY: UniProtKB Q15858
- EXPERIMENTAL_DETAILS: E-VIPR optical membrane potential assay with electrical stimulation
- RUN_PARAMETERS: active against one or more sodium channels; Table 3 does not name the assay or NaV subtype; read-out: Binned Activity Data (IC50)

Worked cases, IC50 given:
MOLECULE: CC(=O)c1ccc2n1CCN(C)C21CCN(C(=O)c2ccc(S(=O)(=O)C(F)F)cc2)CC1 [Compound 268]
IC50: > 5000 nM
//
MOLECULE: CN1CCn2c(Cl)ccc2C12CCN(C(=O)c1ccc(OCC(F)(F)F)cc1)CC2 [Compound 330]
IC50: 2000 to 5000 nM

Please give the measured IC50 for this molecule: Cc1cc(C(=O)N2CCC3(CC2)N[C@H](C)Cn2c(C(F)(F)F)ccc23)ccc1OC(C)C [Compound 308]
≤ 2000 nM

Another molecule to check: CC[C@H](C)Oc1ccc(C(=O)N2CCC3(CC2)NCCn2c(C(F)(F)F)ccc23)cc1OC [Compound 522]
≤ 2000 nM

----------
- TARGET_ENTITY: human NaV subtype, like NaV 1.7 (Homo sapiens, UniProt Q15858)
- Sequence (Q15858 whole entry): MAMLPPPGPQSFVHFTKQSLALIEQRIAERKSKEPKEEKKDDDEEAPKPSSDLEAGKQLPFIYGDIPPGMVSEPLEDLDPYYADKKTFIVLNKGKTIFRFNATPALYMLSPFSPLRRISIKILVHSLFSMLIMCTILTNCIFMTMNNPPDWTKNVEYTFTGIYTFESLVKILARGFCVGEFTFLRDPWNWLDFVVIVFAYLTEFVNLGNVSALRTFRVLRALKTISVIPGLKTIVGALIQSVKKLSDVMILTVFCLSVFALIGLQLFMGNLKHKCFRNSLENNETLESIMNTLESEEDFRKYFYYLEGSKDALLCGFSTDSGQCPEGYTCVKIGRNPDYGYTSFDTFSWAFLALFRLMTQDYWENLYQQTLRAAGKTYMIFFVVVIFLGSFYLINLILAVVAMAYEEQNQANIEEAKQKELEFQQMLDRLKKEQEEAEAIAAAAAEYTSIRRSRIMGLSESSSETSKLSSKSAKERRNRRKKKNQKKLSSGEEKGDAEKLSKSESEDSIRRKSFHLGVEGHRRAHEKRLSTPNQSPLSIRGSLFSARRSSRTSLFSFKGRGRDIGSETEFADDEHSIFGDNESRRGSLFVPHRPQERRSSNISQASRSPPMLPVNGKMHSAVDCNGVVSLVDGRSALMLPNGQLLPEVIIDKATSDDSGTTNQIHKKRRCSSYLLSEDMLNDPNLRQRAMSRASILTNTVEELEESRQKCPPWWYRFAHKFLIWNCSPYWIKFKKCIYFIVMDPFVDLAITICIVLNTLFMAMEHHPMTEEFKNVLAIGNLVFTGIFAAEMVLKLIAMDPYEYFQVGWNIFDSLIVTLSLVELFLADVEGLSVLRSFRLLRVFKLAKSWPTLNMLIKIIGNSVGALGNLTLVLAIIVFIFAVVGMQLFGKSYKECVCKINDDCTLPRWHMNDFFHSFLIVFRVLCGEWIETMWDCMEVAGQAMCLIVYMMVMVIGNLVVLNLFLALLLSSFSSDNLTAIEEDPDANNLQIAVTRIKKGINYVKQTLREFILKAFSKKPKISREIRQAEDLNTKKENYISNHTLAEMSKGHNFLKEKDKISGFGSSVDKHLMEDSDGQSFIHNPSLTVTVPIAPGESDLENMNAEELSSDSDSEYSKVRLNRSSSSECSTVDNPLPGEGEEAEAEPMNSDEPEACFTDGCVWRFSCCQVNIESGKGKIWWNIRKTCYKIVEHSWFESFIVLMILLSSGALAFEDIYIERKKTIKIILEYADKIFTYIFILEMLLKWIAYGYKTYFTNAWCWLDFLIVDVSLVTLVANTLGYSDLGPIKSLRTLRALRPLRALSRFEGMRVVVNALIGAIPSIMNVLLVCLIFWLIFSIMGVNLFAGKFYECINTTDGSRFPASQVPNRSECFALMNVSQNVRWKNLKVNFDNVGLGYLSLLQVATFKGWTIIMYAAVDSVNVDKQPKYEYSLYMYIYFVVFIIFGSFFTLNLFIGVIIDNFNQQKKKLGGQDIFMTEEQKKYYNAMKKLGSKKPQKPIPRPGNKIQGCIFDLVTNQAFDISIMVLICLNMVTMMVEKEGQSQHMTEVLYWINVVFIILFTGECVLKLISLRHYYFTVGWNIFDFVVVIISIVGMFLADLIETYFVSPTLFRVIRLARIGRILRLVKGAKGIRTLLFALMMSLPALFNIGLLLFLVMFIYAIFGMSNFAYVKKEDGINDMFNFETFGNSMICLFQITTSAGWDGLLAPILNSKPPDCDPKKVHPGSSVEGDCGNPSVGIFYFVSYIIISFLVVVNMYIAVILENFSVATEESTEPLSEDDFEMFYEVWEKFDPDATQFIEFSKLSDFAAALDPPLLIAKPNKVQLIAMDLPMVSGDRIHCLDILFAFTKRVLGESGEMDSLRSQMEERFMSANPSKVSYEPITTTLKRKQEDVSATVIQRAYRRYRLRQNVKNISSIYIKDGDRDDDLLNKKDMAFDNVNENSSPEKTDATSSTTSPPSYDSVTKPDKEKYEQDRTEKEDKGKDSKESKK
- EXPERIMENTAL_DETAILS: E-VIPR optical membrane potential assay with electrical stimulation
- Format: cell-based
- RUN_PARAMETERS: active against one or more sodium channels; Table 3 does not name the assay or NaV subtype; read-out: Binned Activity Data (IC50)
RECORDED_METRIC: IC50

Example results:
MOLECULE: CCC(=O)c1ccc2n1CCN(C)C21CCN(C(=O)c2ccc(OC(C)C)c(OC)c2)CC1 [Compound 607]
IC50: 2000 to 5000 nM
--
MOLECULE: COc1ccc(C(=O)N2CCC3(CC2)c2ccc(C(=O)C4(C)CC4)n2CCN3C)cc1C(F)(F)F [Compound 282]
IC50: ≤ 2000 nM
--
MOLECULE: Cc1cc(C(=O)N2CCC3(CC2)c2ccc(C(F)(F)F)n2CCN3C)ccc1C(C)(C)O [Compound 98]
IC50: ≤ 2000 nM
--
MOLECULE: CC(C)Oc1ccc(C(=O)N2CCC3(CC2)c2ccc(C(=O)C(C)(C)C)n2CCN3C)cc1C(F)(F)F [Compound 617]
IC50: ≤ 2000 nM
--
MOLECULE: CN1CCn2c(C(=O)C(F)(F)F)ccc2C12CCN(C(=O)c1ccc(S(=O)(=O)C3CC3)cc1)CC2 [Compound 496]
IC50: 2000 to 5000 nM
--
MOLECULE: Cc1cc(C(=O)N2CCC3(CC2)NC(C)Cn2c(C(F)(F)F)ccc23)ccc1OC(C)C (stereo not drawn) [Compound 222]
IC50: ≤ 2000 nM
--
MOLECULE: COc1cc(C(=O)N2CCC3(CC2)c2ccc(Cl)n2CCN3C)ccc1C(C)(C)C [Compound 209]
IC50: ≤ 2000 nM
--
MOLECULE: CCCCCc1ccc(C(=O)N2CCC3(CC2)c2ccc(C(=O)C(F)(F)F)n2CCN3C)cc1 [Compound 62]
IC50: ≤ 2000 nM
--
MOLECULE: Cc1cc(C(=O)N2CCC3(CC2)c2ccc(C(=O)C(C)(C)C)n2CCN3C)ccc1S(C)(=O)=O [Compound 682]
IC50: > 5000 nM
--
MOLECULE: COc1ccc(C(=O)N2CCC3(CC2)NC(C)(C)Cn2c(C(=O)C(F)(F)F)ccc23)cc1C(F)(F)F [Compound 377]
IC50: ≤ 2000 nM

Reported IC50, molecule CC[C@@H](C)Oc1ccc(C(=O)N2CCC3(CC2)c2ccc(Cl)n2CCN3C)cc1OC [Compound 294] : ____
≤ 2000 nM

What do we get for CCNS(=O)(=O)c1ccc(C(=O)N2CCC3(CC2)c2ccc(Cl)n2CCN3C)cc1 [Compound 24] ?
2000 to 5000 nM

Also C[C@H]1Cn2c(C(=O)C(F)(F)F)ccc2C2(CCN(C(=O)c3ccc(O)c(Cl)c3)CC2)N1C [Compound 700] ?
≤ 2000 nM

Moving on to COc1cc(C(=O)N2CCC3(CC2)NC(C)(C)Cn2c(C(F)(F)F)ccc23)ccc1OC(C)C [Compound 551]
≤ 2000 nM

Further, for Cc1cc(C(=O)N2CC[C@]3(c4ccc(C(F)(F)F)n4CCN3C)[C@H](F)C2)ccc1OC(C)C [Compound 475] ?
≤ 2000 nM

----------
- TARGET_ENTITY: human NaV subtype, like NaV 1.7 (Homo sapiens, UniProt Q15858)
- EXPERIMENTAL_DETAILS: E-VIPR optical membrane potential assay with electrical stimulation
- RUN_PARAMETERS: active against one or more sodium channels; Table 3 does not name the assay or NaV subtype; read-out: Binned Activity Data (IC50)
pIC50: −log10 of the molar value.
// reported pIC50 per item

Below, 5 compounds whose answers are already recorded.
COMPOUND: CC(C)Oc1ccc(C(=O)N2CCC3(CC2)c2cc(C(=O)C(F)(F)F)cn2C(C)(C)CN3C)c(F)c1 [Compound 52]
RECORDED_METRIC: pIC50
MEASURED_VALUE: < 5.30

COMPOUND: COc1cc(C(=O)N2CCC3(CC2)c2c(F)cc(C(F)(F)F)n2CCN3C)ccc1OC(F)F [Compound 113]
RECORDED_METRIC: pIC50
MEASURED_VALUE: ≥ 5.70

COMPOUND: CC(C)Oc1ccc(C(=O)N2CCC3(CC2)c2ccc(Cl)n2CCN3C)cc1F [Compound 25]
RECORDED_METRIC: pIC50
MEASURED_VALUE: < 5.30

COMPOUND: CN1CCn2c(C(F)(F)F)ccc2C12CCN(C(=O)c1ccc(S(=O)(=O)N3CCCC3)cc1)CC2 [Compound 123]
RECORDED_METRIC: pIC50
MEASURED_VALUE: ≥ 5.70

COMPOUND: COc1cc(C(=O)N2CCC3(CC2)NCCn2c(C(F)(F)F)ccc23)ccc1C(C)(C)O [Compound 83]
RECORDED_METRIC: pIC50
MEASURED_VALUE: ≥ 5.70

Fill in the blank: the reported pIC50 of COc1cc(C(=O)N2CCC3(CC2)c2ccc(C(C)=O)n2CCN3C)ccc1OC(C)C [Compound 535] is ____.
< 5.30

And for CCOC(=O)N1CCn2c(C(F)(F)F)ccc2C12CCN(C(=O)c1ccc(OC(C)C)c(OC)c1)CC2 [Compound 741] ?
≥ 5.70

And then O=C(c1ccc(S(=O)(=O)NC2CC2)cc1)N1CCC2(CC1)c1ccc(C(F)(F)F)n1CCN2C1CC1 [Compound 708] , what is it?
≥ 5.70

Try this compound next: CN1CCn2c(C(=O)C3CC3)ccc2C12CCN(C(=O)c1ccc(COCCC(F)(F)F)cc1)CC2 [Compound 627]
≥ 5.70

Record: Cc1cc(C(=O)N2CCC3(CC2)c2c(F)cc(C(F)(F)F)n2CCN3C)ccc1S(=O)(=O)C(C)C [Compound 215]
≥ 5.70

Further, for COc1ccc(C(=O)N2CCC3(CC2)c2ccc(C(=O)C(C)(C)C)n2CCN3C)cc1Cl [Compound 58] ?
≥ 5.70

Also, COCCN1CCn2c(C(F)(F)F)ccc2C12CCN(C(=O)c1ccc(OC(C)C)c(CO)c1)CC2 [Compound 336] please.
≥ 5.70

Entry to check: CN1CCn2c(C(=O)C(F)(F)F)ccc2C12CCN(C(=O)c1ccc(OCc3ccccc3)cc1)CC2 [Compound 369]
≥ 5.70

Try this compound too: CN1CCn2c(C(=O)C(F)(F)F)ccc2C12CCN(C(=O)c1ccc(CC(C)(C)O)cc1)CC2 [Compound 688]
≥ 5.70

----------
Listing of entries alongside the reported pIC50.
- TARGET_ENTITY: UniProt:Q15858
- EXPERIMENTAL_DETAILS: E-VIPR optical membrane potential assay with electrical stimulation
- RUN_PARAMETERS: active against one or more sodium channels; Table 3 does not name the assay or NaV subtype; read-out: Binned Activity Data (IC50)
pIC50: −log10 of the molar value.

COMPOUND: CC(C)Oc1ccc(C(=O)N2CCC3(CC2)NCCn2c(C(F)(F)F)ccc23)cc1CO
RECORDED_METRIC: pIC50
MEASURED_VALUE: ≥ 5.70

Now look at this entry.
Query (compound): Cc1cc(C(=O)N2CCC3(CC2)c2ccc(C(=O)C(F)(F)F)n2C(C)CN3C)ccc1OC(C)C (stereo not shown) ; field requested: pIC50
≥ 5.70

----------
- TARGET_ENTITY: human NaV subtype, like NaV 1.7 (Homo sapiens, UniProt Q15858)
- EXPERIMENTAL_DETAILS: E-VIPR optical membrane potential assay with electrical stimulation
- RUN_PARAMETERS: active against one or more sodium channels; Table 3 does not name the assay or NaV subtype; read-out: Binned Activity Data (IC50)
pIC50: −log10 of the molar value.
Measured pIC50 values are reported for all entries that follow.

Example entries and their recorded answers appear below.
COMPOUND: CCC(C)(C)c1ccc(C(=O)N2CCC3(CC2)c2ccc(C(=O)C(F)(F)F)n2CCN3C)cc1 [Compound 54]
TARGET_ENTITY: human NaV subtype, like NaV 1.7 (Homo sapiens, UniProt Q15858)
pIC50: 5.30 to 5.70

COMPOUND: C=C(C)Oc1ccc(C(=O)N2CCC3(CC2)c2ccc(C(F)(F)F)n2CCN3C)cc1OC [Compound 751]
TARGET_ENTITY: human NaV subtype, like NaV 1.7 (Homo sapiens, UniProt Q15858)
pIC50: ≥ 5.70

COMPOUND: CC(=O)c1ccc2n1CCN(C)C21CCN(C(=O)c2ccc(COCC(F)(F)F)cc2)CC1 [Compound 447]
TARGET_ENTITY: human NaV subtype, like NaV 1.7 (Homo sapiens, UniProt Q15858)
pIC50: < 5.30

Proceed to the following item.
Requested field: pIC50. Item: Cc1cc(C(=O)N2CCC3(CC2)c2ccc(C(F)(F)F)n2CCN3CC(=O)N(C)C)ccc1OC(C)C [Compound 723]
≥ 5.70
